Values were extracted from patent US20260258115A1.

testTarget: RSV prefusion F (preF), DS-Cav1 (Respiratory syncytial virus, UniProt P03420 26-513)
assayProcedure: BLI, IgG on anti-human IgG sensor, 100 nM antigen
endpointLabel: pKd
The quantity pKd is defined as the negative base-10 logarithm of the molar concentration.

binder	reportedMeasurement
ADI-41552 (antibody, V domains shown) VH: EVQLLESGGGLVQPGGSLRLSCAASGFTFSPYSMNWVRQAPGKGLEWVSYISRSGSFKYYADSVKGRFTISRDDAKNSLYLHMNSLRDDDTAVYYCVSYCSSATCHQRFDYWGQGTLVTVSS VL: EIVLTQSPATLSLSPGERATLSCRASQSVNSYLAWYQQKPGQAPRLLIYDASNRATGIPARFSGSGSGTDFTLTISSLEPEDFAVYYCQERNSWPKLTFGGGTKVEIK	8.46
ADI-41605 (antibody, V domains shown, also called Ab 879; Antibody Number 879) VH: QVQLVESGPGLVKPSQTLSLTCSVSGGSISSDDHYWSWIRQHPGKGLEWIGYIYYSGYTNYNPSLKSRVTISVDTSKNQFSLRLSSVTAADTAVYYCARETDITIFGVVPVGYFDYWGQGTLVTVSS VL: DIQVTQSPDSLAVSLGERATINCKSSQSILSSTNNKNFLAWYQQKPGQPPKLLLHWASTREFGVPDRFSGSGSGTEFTLTISSLQAEDVAVYYCQQYYTTPYTFGQGTKVEIK	8.50
ADI-41602 (antibody, V domains shown, also called Ab 876; Antibody Number 876) VH: EVQLQESGPGLVKPSETLSLTCTVSGGSLSGYYWSWIRQPPGKGLEWIGYIYHSGSTNYNPSLESRVTISVDTSKNQFSLKVNAVTAADTAVYYCAKVERLLRFDPWGQGTLVTVSS VL: QSVLIQPASVSGSPGQSITISCIGSSSDVGGYNYVSWYQHYPGKAPKLMIYDVSNRPSGVSNRFSGSKSGNTASLTISGLQAEDEADYYCSSYTSSTSYVFGTGTKVTVL	8.54
ADI-41590 (antibody, V domains shown) VH: EVQLVQSGGGLVKPGGSLRLSCTASGFTFSDHYMSWIRQAPGKGLEWISYISSTSSFTNYANSVKGRFTISRDNAKNSLYLQMNSLRAEDTAVYYCARDRSILYSGYSLDYWGQGTLVTVSS VL: DIQMTQSPSSLSASVGDRVTISCRASQSILNYLNWYQHKPGKAPKLLIYAASSLQSGVPSRFSGSGSGTDFTLTISGLQPEDFATYYCQQSDSTRTFGQGTKVEIK	8.52

// moving on: another record for pKd
Need pKd of ADI-41580 (antibody, V domains shown, also called Ab 854; Antibody Number 854) VH: QVQLQQWGAGLLKPSETLSLTCAVYGGSFSGYYWSWIRQPPGKGLEWIGEMNHSGGSNYNPSFKSRVTISVDTSKKYFSLNLSSVTAADTAIYYCARTPFYYESTGYYYYYYGMDVWGQGTTVTVSS VL: DIVMTQTPDSLAVSLGERATINCKSSQSVSHSSNNKNYLSWYQQKPGQPPKLLIYWASIRESEAPDRFTGSGSGTDFTLTISSLQAEDVAVYYCQQYYTAPITFGQGTRLEIK , thanks.
8.53
